# Target Of Assay: androgen receptor (AR) (Homo sapiens, UniProt P10275, T878A)
# Sequence (P10275 whole entry T878A): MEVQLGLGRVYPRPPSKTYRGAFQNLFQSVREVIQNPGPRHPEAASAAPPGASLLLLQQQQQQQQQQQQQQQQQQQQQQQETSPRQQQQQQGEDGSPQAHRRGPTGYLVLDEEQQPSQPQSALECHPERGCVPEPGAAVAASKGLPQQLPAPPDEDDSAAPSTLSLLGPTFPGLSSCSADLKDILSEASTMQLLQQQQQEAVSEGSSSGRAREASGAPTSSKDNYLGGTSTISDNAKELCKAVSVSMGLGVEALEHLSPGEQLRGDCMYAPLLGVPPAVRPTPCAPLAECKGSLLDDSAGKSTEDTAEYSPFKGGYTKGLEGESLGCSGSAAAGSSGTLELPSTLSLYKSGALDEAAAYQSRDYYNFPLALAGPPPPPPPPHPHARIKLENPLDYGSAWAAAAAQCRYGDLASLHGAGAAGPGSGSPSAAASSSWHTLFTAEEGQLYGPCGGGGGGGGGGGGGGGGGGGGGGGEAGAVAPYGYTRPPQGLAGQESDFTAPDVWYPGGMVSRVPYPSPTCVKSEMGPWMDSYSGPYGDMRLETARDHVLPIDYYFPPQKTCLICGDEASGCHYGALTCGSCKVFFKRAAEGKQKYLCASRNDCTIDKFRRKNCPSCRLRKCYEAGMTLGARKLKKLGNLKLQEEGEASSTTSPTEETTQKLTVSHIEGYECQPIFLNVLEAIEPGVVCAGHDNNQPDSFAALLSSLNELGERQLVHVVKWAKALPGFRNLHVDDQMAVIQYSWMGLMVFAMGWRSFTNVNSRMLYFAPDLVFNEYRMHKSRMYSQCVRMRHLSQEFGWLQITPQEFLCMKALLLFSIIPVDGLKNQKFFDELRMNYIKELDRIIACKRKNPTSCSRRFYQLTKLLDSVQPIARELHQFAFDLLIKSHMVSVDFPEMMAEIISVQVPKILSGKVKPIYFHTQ
# Assay Protocol: eGFP cellular AR transcription assay (LNCaP eGFP cells, LN-ARR2PB-eGFP)
# Condition Label: eGFP IC50 (μM), Series 1
Assay Endpoint: IC50 (µM)
Only the number, expressed in µM, is required.

For orientation, consider the following solved cases.
1. Cc1scc(-c2csc(N3CCOCC3)n2)c1C; 0.42
2. CNc1cc(F)c(OC)c(-c2csc(N3CCOCC3)n2)c1; 3.06

Record request: IC50 value, item `Fc1ccc(-c2csc(N3CCOCC3)n2)cc1F` 0.24

----------
# Target Of Assay: androgen receptor (AR) (Homo sapiens, UniProt P10275, T878A)
# Assay Protocol: eGFP cellular AR transcription assay (LNCaP eGFP cells, LN-ARR2PB-eGFP)
# Condition Label: eGFP IC50 (μM), LNCaP eGFP cells
Assay Endpoint: IC50

For orientation, consider the following solved cases.
1. Nc1ccccc1CN1C(=O)Cc2ccccc21; 9.5 µM
2. CNc1nc(-c2ccc3ccccc3c2)cs1; 3.17 µM
3. Nc1nc(-c2ccc3ccccc3c2)cs1; 9.16 µM
4. C/C(=N\NC(N)=S)c1ccc2c3c(cccc13)CC2; 3.4 µM

Record request: IC50 value, item `NC(=S)NN=C1c2ccccc2-c2ccccc21` 7.38 µM
